experiment_summary: self-splicing fitness, log relative to wild type (ln ratio); higher = more splicing; Tetrahymena group I intron in knt gene, E. coli kanamycin selection, DiMSum; sequences stand for … in CUCUCU…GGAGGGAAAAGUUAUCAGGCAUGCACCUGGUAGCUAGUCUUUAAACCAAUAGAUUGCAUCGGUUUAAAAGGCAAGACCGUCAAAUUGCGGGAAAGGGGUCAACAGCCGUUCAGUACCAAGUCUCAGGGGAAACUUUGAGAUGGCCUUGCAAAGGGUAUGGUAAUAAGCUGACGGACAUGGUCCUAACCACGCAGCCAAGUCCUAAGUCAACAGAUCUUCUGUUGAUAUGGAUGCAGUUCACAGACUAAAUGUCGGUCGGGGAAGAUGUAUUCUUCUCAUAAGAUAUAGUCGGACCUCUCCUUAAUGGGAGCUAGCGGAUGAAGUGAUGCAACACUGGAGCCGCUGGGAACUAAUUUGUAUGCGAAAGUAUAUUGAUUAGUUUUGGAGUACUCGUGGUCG;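 note: selection with 25 µg/mL kanamycin versus none on LB agar overnight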
experimental_conditions: 30 °C
Lab note: anything with self-splicing fitness (ln) at or over -3 counts as condition met; the rest go in condition not met.

[[record]]
seq_string = "ACGGAGCAAUAUUACGGUUG"
category_label = "condition not met"

[[record]]
seq_string = "UGAAAGCAAUAUUACGCUGU"
category_label = "condition not met"

[[record]]
seq_string = "CCAUAGCAAUAUUACGCUUA"
category_label = "condition met"

[[record]]
seq_string = "ACUGAGCAAUAUUACGGGAG"
category_label = "condition not met"

[[record]]
seq_string = "CUAAAGCAAUAUUACGCGGU"
category_label = "condition met"

[[record]]
seq_string = "UCAGAGCAAUAUUACGUUGU"
category_label = "condition not met"


* * *

experiment_summary: self-splicing fitness, log relative to wild type (ln ratio); higher = more splicing; Tetrahymena group I intron in knt gene, E. coli kanamycin selection, DiMSum; sequences stand for … in CUCUCU…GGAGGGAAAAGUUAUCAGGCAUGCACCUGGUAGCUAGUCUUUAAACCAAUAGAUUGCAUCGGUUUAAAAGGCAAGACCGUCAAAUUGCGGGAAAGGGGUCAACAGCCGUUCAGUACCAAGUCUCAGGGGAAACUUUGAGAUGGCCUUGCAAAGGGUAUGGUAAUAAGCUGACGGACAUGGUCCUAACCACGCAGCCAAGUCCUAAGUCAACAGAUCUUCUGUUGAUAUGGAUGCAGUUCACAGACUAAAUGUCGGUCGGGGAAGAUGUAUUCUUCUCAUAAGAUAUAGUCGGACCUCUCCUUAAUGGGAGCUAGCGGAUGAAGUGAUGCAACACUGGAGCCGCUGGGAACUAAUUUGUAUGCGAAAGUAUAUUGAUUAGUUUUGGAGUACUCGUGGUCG
experimental_conditions: 37 °C
Collected self-splicing fitness (ln) values appear next to each entry.
quantity_kind: self-splicing fitness (ln)

[[record]]
seq_string = "AUGCAGCAAUAUUACGAACU"
readout_number = 0.379

[[record]]
seq_string = "GGCUAGCAAUAUUACGGCCA"
readout_number = -0.776

[[record]]
seq_string = "ACAGAGCAAUAUUACGAGUU"
readout_number = -1.8

[[record]]
seq_string = "AGUAAGCAAUAUUACGCUAU"
readout_number = -1.41

[[record]]
seq_string = "GCCUAGCAAUAUUACGGCAC"
readout_number = -0.195

[[record]]
seq_string = "ACACAGCAAUAUUACGAUCC"
readout_number = -0.951

[[record]]
seq_string = "GUUCAGCAAUAUUACGUGCU"
readout_number = -2.98

[[record]]
seq_string = "CCGGAGCAAUAUUACGAGGU"
readout_number = -2.6

[[record]]
seq_string = "ACUAAGCAAUAUUACGGGCC"
readout_number = -1.73

[[record]]
seq_string = "GAAGAGCAAUAUUACGUAUU"
readout_number = -1.04

[[record]]
seq_string = "GACUAGCAAUAUUACGUUAU"
readout_number = -1.28

[[record]]
seq_string = "CGCAAGCAAUAUUACGGGGA"
readout_number = -2.69

[[record]]
seq_string = "AAAUAGCAAUAUUACGUAAG"
readout_number = -0.721

[[record]]
seq_string = "UUAUAGCAAUAUUACGGUAA"
readout_number = -0.924

[[record]]
seq_string = "CCGAAGCAAUAUUACGUAUU"
readout_number = -3.35

[[record]]
seq_string = "GAAGAGCAAUAUUACGGAAA"
readout_number = -2.93


* * *

experiment_summary: self-splicing fitness, log relative to wild type (ln ratio); higher = more splicing; Tetrahymena group I intron in knt gene, E. coli kanamycin selection, DiMSum; sequences stand for … in CUCUCU…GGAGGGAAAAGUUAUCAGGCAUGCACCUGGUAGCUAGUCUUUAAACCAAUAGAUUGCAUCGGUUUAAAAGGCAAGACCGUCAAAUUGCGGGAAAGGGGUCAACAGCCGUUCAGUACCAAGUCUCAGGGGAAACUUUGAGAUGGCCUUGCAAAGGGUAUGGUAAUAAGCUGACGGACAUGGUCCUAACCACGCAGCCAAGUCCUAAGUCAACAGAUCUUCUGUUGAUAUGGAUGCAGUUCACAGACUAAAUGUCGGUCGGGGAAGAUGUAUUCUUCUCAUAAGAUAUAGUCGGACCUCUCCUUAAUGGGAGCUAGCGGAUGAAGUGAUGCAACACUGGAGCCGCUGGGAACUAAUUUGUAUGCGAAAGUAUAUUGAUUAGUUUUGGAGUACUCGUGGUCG
experimental_conditions: 30 °C
Note: every record was labeled by where its self-splicing fitness (ln) sits among zone 1: < -3; zone 2: ≥ -3 and < -1; zone 3: ≥ -1

[[record]]
seq_string = "CUAGAGCAAUAUUACGAACC"
category_label = "zone 2"

[[record]]
seq_string = "GUGGAGCAAUAUUACGCGAU"
category_label = "zone 2"

[[record]]
seq_string = "UCGUAGCAAUAUUACGUGAG"
category_label = "zone 1"

[[record]]
seq_string = "ACUUAGCAAUAUUACGGCGU"
category_label = "zone 3"

[[record]]
seq_string = "AUAUAGCAAUAUUACGUUAA"
category_label = "zone 2"

[[record]]
seq_string = "UUAAAGCAAUAUUACGCAUG"
category_label = "zone 3"

[[record]]
seq_string = "GGCAAGCAAUAUUACGGACG"
category_label = "zone 3"

[[record]]
seq_string = "AUAAAGCAAUAUUACGGAUU"
category_label = "zone 2"

[[record]]
seq_string = "UAUAAGCAAUAUUACGCGGU"
category_label = "zone 1"

[[record]]
seq_string = "CCCAAGCAAUAUUACGUGGU"
category_label = "zone 1"

[[record]]
seq_string = "CACUAGCAAUAUUACGCACG"
category_label = "zone 3"

[[record]]
seq_string = "AUGAAGCAAUAUUACGGGCG"
category_label = "zone 3"

[[record]]
seq_string = "GAAAAGCAAUAUUACGGCGA"
category_label = "zone 3"

[[record]]
seq_string = "CGGUAGCAAUAUUACGGCCU"
category_label = "zone 3"

[[record]]
seq_string = "CUCCAGCAAUAUUACGACGU"
category_label = "zone 1"

[[record]]
seq_string = "CGUAAGCAAUAUUACGUGCC"
category_label = "zone 2"

[[record]]
seq_string = "AAUAAGCAAUAUUACGAAUC"
category_label = "zone 2"

[[record]]
seq_string = "CCUGAGCAAUAUUACGGAUA"
category_label = "zone 1"

[[record]]
seq_string = "UUAUAGCAAUAUUACGCCGA"
category_label = "zone 3"

[[record]]
seq_string = "GCUCAGCAAUAUUACGCUCG"
category_label = "zone 2"

[[record]]
seq_string = "AACGAGCAAUAUUACGCAGC"
category_label = "zone 2"

[[record]]
seq_string = "GGGGAGCAAUAUUACGAGGG"
category_label = "zone 2"

[[record]]
seq_string = "GCUCAGCAAUAUUACGUUAC"
category_label = "zone 2"

[[record]]
seq_string = "UCAUAGCAAUAUUACGCCAU"
category_label = "zone 1"

[[record]]
seq_string = "AUAUAGCAAUAUUACGCACC"
category_label = "zone 3"

[[record]]
seq_string = "AGGCAGCAAUAUUACGAACC"
category_label = "zone 3"

[[record]]
seq_string = "UUCAAGCAAUAUUACGGUCA"
category_label = "zone 3"

[[record]]
seq_string = "UGAGAGCAAUAUUACGCUAG"
category_label = "zone 1"

[[record]]
seq_string = "UGCCAGCAAUAUUACGUAUU"
category_label = "zone 2"

[[record]]
seq_string = "GUACAGCAAUAUUACGGCCA"
category_label = "zone 3"

[[record]]
seq_string = "AAAAAGCAAUAUUACGAAAU"
category_label = "zone 2"

[[record]]
seq_string = "ACCGAGCAAUAUUACGUUAC"
category_label = "zone 1"

[[record]]
seq_string = "GGGGAGCAAUAUUACGCACA"
category_label = "zone 2"

[[record]]
seq_string = "AGCUAGCAAUAUUACGGCCC"
category_label = "zone 3"

[[record]]
seq_string = "UACAAGCAAUAUUACGAAUA"
category_label = "zone 2"

[[record]]
seq_string = "CAAGAGCAAUAUUACGAACG"
category_label = "zone 3"

[[record]]
seq_string = "CCUAAGCAAUAUUACGCUGG"
category_label = "zone 1"

[[record]]
seq_string = "ACGUAGCAAUAUUACGGGCA"
category_label = "zone 3"

[[record]]
seq_string = "ACUGAGCAAUAUUACGCCCA"
category_label = "zone 2"

[[record]]
seq_string = "AGUGAGCAAUAUUACGGCCG"
category_label = "zone 1"

[[record]]
seq_string = "CACUAGCAAUAUUACGACAA"
category_label = "zone 1"

[[record]]
seq_string = "CCAGAGCAAUAUUACGAUUC"
category_label = "zone 1"

[[record]]
seq_string = "UGUAAGCAAUAUUACGAAUA"
category_label = "zone 3"

[[record]]
seq_string = "GCUUAGCAAUAUUACGUGUC"
category_label = "zone 2"

[[record]]
seq_string = "UUAGAGCAAUAUUACGAAUU"
category_label = "zone 2"

[[record]]
seq_string = "GUGUAGCAAUAUUACGUGUC"
category_label = "zone 2"

[[record]]
seq_string = "AUCCAGCAAUAUUACGUCGA"
category_label = "zone 3"

[[record]]
seq_string = "GUCUAGCAAUAUUACGCCCA"
category_label = "zone 3"

[[record]]
seq_string = "GGUAAGCAAUAUUACGUCAU"
category_label = "zone 3"

[[record]]
seq_string = "ACCUAGCAAUAUUACGAAAG"
category_label = "zone 2"

[[record]]
seq_string = "GGCUAGCAAUAUUACGGGAC"
category_label = "zone 1"

[[record]]
seq_string = "GCGCAGCAAUAUUACGGCUA"
category_label = "zone 3"

[[record]]
seq_string = "AGCCAGCAAUAUUACGUAGA"
category_label = "zone 2"

[[record]]
seq_string = "UAACAGCAAUAUUACGAGAG"
category_label = "zone 1"

[[record]]
seq_string = "ACUGAGCAAUAUUACGUUCC"
category_label = "zone 1"

[[record]]
seq_string = "GCAUAGCAAUAUUACGUCGU"
category_label = "zone 1"

[[record]]
seq_string = "GACAAGCAAUAUUACGAGCC"
category_label = "zone 2"

[[record]]
seq_string = "GUAAAGCAAUAUUACGGCUA"
category_label = "zone 3"

[[record]]
seq_string = "GCUCAGCAAUAUUACGAGGU"
category_label = "zone 2"

[[record]]
seq_string = "ACGAAGCAAUAUUACGCCAA"
category_label = "zone 2"

[[record]]
seq_string = "ACAAAGCAAUAUUACGCCAU"
category_label = "zone 1"

[[record]]
seq_string = "CUAGAGCAAUAUUACGGUGG"
category_label = "zone 3"

[[record]]
seq_string = "GAAUAGCAAUAUUACGACUU"
category_label = "zone 3"

